system: breast line MDA468; experiment: In vitro cell culture growth assay (MTS), MDA468; type: cell-based, human; settings: Homo sapiens, 72 h, MDA468 cells, three days after drug treatment
In plain terms, low IC50, meaning strictly below 700 nM, gives 1, and everything else gives -1.

1. CN1CCN(C(=O)N2CCC(n3ncc4c(N5CCOCC5)nc(-c5ccc6[nH]ccc6c5)nc43)CC2)CC1 [Compound 120]; -1
2. CN(C)c1ccc(CC(=O)Nc2ccc(-c3nc(N4CCOCC4)c4cnn(C5CCCCO5)c4n3)cc2)cc1 (stereo not shown) [Compound 522]; -1
3. CCCCNC(=O)Nc1ccc(-c2nc(N3CCOCC3)c3cnn(C4CCN(C(=O)c5cccnc5)CC4)c3n2)cc1 [Example 216]; -1
4. CCOC(=O)N1CCC(n2ncc3c(N4CCOCC4)nc(-c4ccc(NC(=O)NC)cc4)nc32)CC1 [Compound 750]; 1
5. CNC(=O)Nc1ccc(-c2nc(N3CCOCC3)c3cnn(C4CCN(Cc5ccc(Br)nc5)CC4)c3n2)cc1 [Example 389]; 1
6. CC(C)N1CCC(n2ncc3c(N4CCOCC4)nc(-c4ccc5[nH]ccc5c4)nc32)CC1 [Compound 238]; -1

###

tested on: prostate line LNCap; assay: In vitro cell culture growth assay (MTS), LNCap; assay type: cell-based, human; settings: Homo sapiens, 72 h, LNCap cells, three days after drug treatment;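 note: viable cell density read by absorbance at 490 nm, growth expressed as percent of vehicle-treated cells on the same plate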
Below, each entry is listed with its recorded log10 of IC50.
Observable: log10 of IC50 (log10 of the value in µM)

1) COC(=O)N1CCC(n2ncc3c(N4CCOCC4)nc(-c4ccc(NC(=O)Oc5ccc(F)cc5)cc4)nc32)CC1; -0.66
2) CNC(=O)Nc1ccc(-c2nc(N3CCOCC3)c3cnn(C4CCN(C(=O)Oc5ccccc5)CC4)c3n2)cc1; -1.22
3) O=C(Oc1ccccc1)N1CCC(n2ncc3c(N4CCOCC4)nc(-c4ccc5[nH]ccc5c4)nc32)CC1; 0.11
4) COC(=O)N1CCC(n2ncc3c(N4CCOCC4)nc(-c4ccc(NC(=O)Oc5ccc(Cl)cc5)cc4)nc32)CC1; 0.69
5) COC(=O)N1CCC(n2ncc3c(N4CCOCC4)nc(-c4ccc(NC(=O)Oc5ccccc5)cc4)nc32)CC1; 0.70
6) CNC(=O)Oc1ccc(-c2nc(N3CCOCC3)c3cnn(C4CCN(C(=O)OC)CC4)c3n2)cc1; 0.20
7) COC(=O)N1CCC(n2ncc3c(N4CCOCC4)nc(-c4ccc(NC(=O)Oc5ccccc5F)cc4)nc32)CC1; 1.08
8) c1cc2cc(-c3nc(N4CCOCC4)c4cnn(C5CCSCC5)c4n3)ccc2[nH]1; -0.14

###

target: PI3K (Homo sapiens); experiment: Fluorescence polarization assay for PI3K; type: biochemical; conditions: PI3Kα; read-out: PI3Kα IC50;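 note: PI3K kinase reaction on PIP2 with ATP, 30-60 min, product sensed by GST-GRP with red probe in fluorescence polarization (mP), controls without enzyme and at zero time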
Sequence (P42336 whole entry): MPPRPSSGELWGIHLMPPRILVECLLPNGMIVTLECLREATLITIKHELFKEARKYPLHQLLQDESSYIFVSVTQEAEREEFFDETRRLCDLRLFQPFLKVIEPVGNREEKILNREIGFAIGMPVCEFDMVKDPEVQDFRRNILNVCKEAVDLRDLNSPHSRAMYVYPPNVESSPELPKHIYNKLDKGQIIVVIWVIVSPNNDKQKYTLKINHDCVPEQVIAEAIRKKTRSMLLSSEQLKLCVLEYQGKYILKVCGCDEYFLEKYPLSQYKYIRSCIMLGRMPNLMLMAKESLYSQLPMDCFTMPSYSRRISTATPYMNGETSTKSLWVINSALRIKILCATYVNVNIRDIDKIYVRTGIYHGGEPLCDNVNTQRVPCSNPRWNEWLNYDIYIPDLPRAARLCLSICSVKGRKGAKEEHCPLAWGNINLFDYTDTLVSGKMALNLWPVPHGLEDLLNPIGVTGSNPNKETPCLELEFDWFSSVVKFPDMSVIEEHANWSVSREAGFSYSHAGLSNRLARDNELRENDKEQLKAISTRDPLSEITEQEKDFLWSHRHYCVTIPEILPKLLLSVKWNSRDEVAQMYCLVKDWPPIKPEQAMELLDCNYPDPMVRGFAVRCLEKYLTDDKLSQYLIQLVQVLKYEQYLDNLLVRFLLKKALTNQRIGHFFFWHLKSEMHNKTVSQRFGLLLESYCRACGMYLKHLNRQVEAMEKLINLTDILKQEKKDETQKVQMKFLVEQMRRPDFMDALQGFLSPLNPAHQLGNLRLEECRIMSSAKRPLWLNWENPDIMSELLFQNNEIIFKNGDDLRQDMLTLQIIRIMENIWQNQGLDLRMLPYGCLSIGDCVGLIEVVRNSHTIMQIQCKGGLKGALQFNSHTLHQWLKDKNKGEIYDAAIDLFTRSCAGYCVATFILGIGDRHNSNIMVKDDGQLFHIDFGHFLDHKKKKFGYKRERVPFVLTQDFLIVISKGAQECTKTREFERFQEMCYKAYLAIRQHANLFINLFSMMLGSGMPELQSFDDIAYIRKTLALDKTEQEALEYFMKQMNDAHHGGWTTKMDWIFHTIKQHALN
Sequence (P27986 whole entry partner): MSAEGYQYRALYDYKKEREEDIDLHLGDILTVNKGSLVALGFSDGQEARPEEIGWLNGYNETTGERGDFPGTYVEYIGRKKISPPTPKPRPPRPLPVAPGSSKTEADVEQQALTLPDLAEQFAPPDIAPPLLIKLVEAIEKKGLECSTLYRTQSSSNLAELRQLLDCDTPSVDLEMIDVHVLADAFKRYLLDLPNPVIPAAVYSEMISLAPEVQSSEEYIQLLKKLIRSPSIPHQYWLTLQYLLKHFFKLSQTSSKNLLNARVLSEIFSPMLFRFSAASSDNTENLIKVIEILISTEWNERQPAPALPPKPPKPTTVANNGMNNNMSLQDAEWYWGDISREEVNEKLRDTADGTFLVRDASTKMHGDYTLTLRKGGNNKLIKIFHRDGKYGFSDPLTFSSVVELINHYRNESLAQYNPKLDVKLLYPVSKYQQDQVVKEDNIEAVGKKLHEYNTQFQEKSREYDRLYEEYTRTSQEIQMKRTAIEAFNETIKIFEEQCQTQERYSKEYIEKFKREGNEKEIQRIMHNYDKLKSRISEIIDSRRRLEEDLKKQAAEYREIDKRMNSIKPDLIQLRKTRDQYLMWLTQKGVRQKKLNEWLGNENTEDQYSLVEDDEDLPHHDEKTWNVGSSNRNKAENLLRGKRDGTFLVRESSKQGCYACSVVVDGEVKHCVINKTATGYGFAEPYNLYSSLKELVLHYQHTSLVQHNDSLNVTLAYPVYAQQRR
pIC50: −log10 of the molar value.
Observable: pIC50

1) CNC(=O)Nc1ccc(-c2nc(N3CCOCC3)c3cnn(C4CCN(Cc5ccco5)CC4)c3n2)cc1 [Compound 647]; 7.20
2) CC(C)(C)OC(=O)N1CCC(n2ncc3c(N4CCOCC4)nc(-c4ccc(NC(=O)Nc5ccc(CCO)cc5)cc4)nc32)CC1; 8.00
3) CNC(=O)Nc1ccc(-c2nc(N3CCOCC3)c3cnn(C4CCN(Cc5ccccc5O)CC4)c3n2)cc1 [Example 399]; 7.43
4) CCSC(=O)N1CCC(n2ncc3c(N4CCOCC4)nc(-c4ccc(NC(=O)NC)cc4)nc32)CC1; 7.06
5) NCCC(=O)Nc1ccc(-c2nc(N3CCOCC3)c3cn[nH]c3n2)cc1 [Compound 529]; 6.69
6) O=C(Nc1ccc(-c2nc(N3CCOCC3)c3cnn(C4CCN(Cc5cccnc5)CC4)c3n2)cc1)Nc1ccsc1 [Compound 375]; 8.00
7) CC(C)(C)OC(=O)N1CCC[C@@H](n2ncc3c(N4CCOCC4)nc(-c4ccc(N)cc4)nc32)C1; 5.37
8) CCCCNC(=O)Nc1ccc(-c2nc(N3CCOCC3)c3cnn(C4CCN(Cc5cccnc5)CC4)c3n2)cc1; 6.97
9) CNC(=O)Nc1ccc(-c2nc(N3CCOCC3)c3cnn(C4CCN(C(=O)c5ccc(C)cc5)CC4)c3n2)cc1 [Compound 613]; 7.38
10) O=C(NCCF)Nc1ccc(-c2nc(N3CCOCC3)c3cnn(C4CCN(C(=O)c5ccccc5)CC4)c3n2)cc1 [Example 380]; 6.34
11) COc1cccc(-c2nc(N3CCOCC3)c3cnn(C4CCN(Cc5ccccc5)CC4)c3n2)c1; 5.84
12) CNC(=O)N1CCC(n2ncc3c(N4CCOCC4)nc(-c4ccc(NC(=O)OC)cc4)nc32)CC1; 5.71
13) CNC(=O)Nc1ccc(-c2nc(N3CCOCC3)c3cnn(C4CCN(C(=O)N5CCN(C)CC5)CC4)c3n2)cc1 [Example 334]; 7.15
14) NC(=O)Cc1ccc(-c2nc(N3CCOCC3)c3cnn(C4CCN(Cc5ccccc5)CC4)c3n2)cc1; 5.50
15) O=C(Nc1ccncc1)Nc1ccc(-c2nc(N3CCOCC3)c3cnn(C4CCN(C(=O)c5ccccc5)CC4)c3n2)cc1 [Compound 629]; 7.72

###

tested on: breast line MDA468; test: In vitro cell culture growth assay (MTS), MDA468; assay type: cell-based, human; settings: Homo sapiens, 72 h, MDA468 cells, three days after drug treatment
Observable: IC50 (nM)

1. CNCCNC(=O)Nc1ccc(-c2nc(N3CCOCC3)c3cnn(C4CCN(C(=O)c5cccnc5)CC4)c3n2)cc1 [Compound 593]; 9000
2. CCSC(=O)N1CCC(n2ncc3c(N4CCOCC4)nc(-c4ccc(NC(=O)NC)cc4)nc32)CC1; 170
3. CNC(=O)Nc1ccc(-c2nc(N3CCOCC3)c3cnn([C@@H]4CCCNC4)c3n2)cc1; 1250
4. CC(C)OC(=O)N1CCC(n2ncc3c(N4CCOCC4)nc(-c4ccc(NC(=O)Nc5ccncc5)cc4)nc32)CC1; 68
5. O=C(Nc1cccnc1)Nc1ccc(-c2nc(N3CCOCC3)c3cnn(C4CCN(Cc5cccnc5)CC4)c3n2)cc1F [Compound 618]; 150
6. CNC(=O)Nc1ccc(-c2nc(N3CCOCC3)c3cnn(C4CCN(C(=O)SC)CC4)c3n2)cc1; 120
7. CCNC(=O)Nc1ccc(-c2nc(N3CCOC[C@@H]3C)c3cnn(C4CCN(C(=O)OCC)CC4)c3n2)cc1; 960

###

tested on: breast line MDA468; experiment: In vitro cell culture growth assay (MTS), MDA468; format: cell-based, human; conditions: Homo sapiens, 72 h, MDA468 cells, three days after drug treatment
Observable: IC50 (µM)

1) CNC(=O)Nc1ccc(-c2nc(N3CCOCC3)c3cnn(C4CCN(Cc5ccc(C)cc5)CC4)c3n2)cc1; 0.1
2) O=C(Nc1ccccc1)Nc1ccc(-c2nc(N3CCOCC3)c3cnn(C4CCN(CCCCO)CC4)c3n2)cc1; 0.39
3) O=C(NCCCO)Nc1ccc(-c2nc(N3CCOCC3)c3cnn(C4CCN(Cc5ccccc5)CC4)c3n2)cc1 [Compound 514]; 0.65
4) CCCOC(=O)N1CCC(n2ncc3c(N4CCOCC4)nc(-c4ccc(NC(=O)OC)cc4)nc32)CC1; 5
5) CC(C)(C)OC(=O)N1CCC[C@@H](n2ncc3c(N4CCOCC4)nc(-c4ccc(N)cc4)nc32)C1; 2.3
6) CCNC(=O)Nc1ccc(-c2nc(N3CCOCC3)c3cnn(C4CCN(CCCCO)CC4)c3n2)cc1; 2.9
7) COC(=O)N1CCC(n2ncc3c(N4CCOCC4)nc(-c4ccc(NC(=O)OCCO)cc4)nc32)CC1; 0.28
8) COC(=O)Nc1ccc(-c2nc(N3CCOCC3)c3cnn(C4CCN(CC(=O)c5ccccc5)CC4)c3n2)cc1; 1.8
9) O=C(Nc1ccc(-c2nc(N3CCOCC3)c3cnn(C4CCN(C(=O)OCCF)CC4)c3n2)cc1)Nc1cccnc1; 0.034
10) COC(=O)Nc1ccc(-c2nc(N3CCOCC3)c3cnn(C4CCN(C(=O)N5CCN(C)CC5)CC4)c3n2)cc1; 1.7
11) O=C(Nc1ccncc1)Nc1ccc(-c2nc(N3CCOCC3)c3cnn(C4CCNCC4)c3n2)cc1; 1.5
12) c1cc2cc(-c3nc(N4CCOCC4)c4cn[nH]c4n3)ccc2[nH]1; 9
13) CNC(=O)N1CCC(n2ncc3c(N4CCOCC4)nc(-c4ccc(NC(=O)OC)cc4)nc32)CC1; 4.4
14) CCCOC(=O)N1CCC(n2ncc3c(N4CCOCC4)nc(-c4ccc(NC(=O)NCCF)cc4)nc32)CC1; 0.33
15) Fc1ccc(CN2CCC(n3ncc4c(N5CCOCC5)nc(-c5ccc6[nH]ccc6c5)nc43)CC2)cn1; 1.7

###

test system: breast line MDA468; assay: In vitro cell culture growth assay (MTS), MDA468; format: cell-based, human; settings: Homo sapiens, 72 h, MDA468 cells, three days after drug treatment
pIC50: −log10 of the molar value.
Observable: pIC50

1. NNC(=O)Nc1ccc(-c2nc(N3CCOCC3)c3cnn(C4CCN(C(=O)c5cccnc5)CC4)c3n2)cc1 [Example 306]; 4.85
2. CC(C)C(=O)N1CCC(n2ncc3c(N4CCOCC4)nc(-c4ccc(NC(=O)Nc5ccncc5)cc4)nc32)CC1; 7.54
3. CN(C)CC=CC(=O)N1CCC(n2ncc3c(N4CCOCC4)nc(-c4ccc5[nH]ccc5c4)nc32)CC1 [Compound 234]; 5.70
4. CNC(=O)Nc1ccc(-c2nc(N3CCOCC3)c3cnn(C4CCN(C(=O)OCCOC)CC4)c3n2)cc1; 6.59
5. CN(C)CC=CC(=O)N1CCC(n2ncc3c(N4CCOCC4)nc(-c4ccc5[nH]ccc5c4)nc32)CC1 [Compound 487]; 5.70
6. CCOC(=O)N1CCC(n2ncc3c(N4CCOC[C@H]4C)nc(-c4ccc(NC(=O)Nc5ccccc5)cc4)nc32)CC1; 6.68
7. Oc1cccc(-c2nc(N3CCOCC3)c3cnn(C4CCCCC4)c3n2)c1; 5.60
8. CNC(=O)Nc1ccc(-c2nc(N3CCOCC3)c3cnn(C4CCN(Cc5cccnc5)CC4)c3n2)cc1F [Compound 597]; 6.74
9. COC(=O)N1CCC(n2ncc3c(N4CCOCC4)nc(-c4ccc(NC(=O)OCC(F)(F)F)cc4)nc32)CC1; 4.77
10. Cn1ncc2c(N3CCC(n4c(=O)[nH]c5ccccc54)CC3)nc(-c3ccccc3)nc21; 4.92
11. CNC(=O)Nc1ccc(-c2nc(N3CCOCC3)c3cnn(C4CCN(Cc5cccnc5Cl)CC4)c3n2)cc1; 7.00
12. CCOC(=O)N1CCC(n2ncc3c(N4CCOC[C@H]4C)nc(-c4ccc(NC(=O)Nc5cccnc5)cc4)nc32)CC1; 7.15
13. O=C(Nc1ccccc1)Nc1ccc(-c2nc(N3CCOCC3)c3cnn(C4CCN(Cc5cccnc5)CC4)c3n2)cc1F [Example 351]; 6.40
14. CNC(=O)Nc1ccc(-c2nc(N3CCOCC3)c3cnn(C4CCN(C(=O)C(F)(F)F)CC4)c3n2)cc1; 6.30
15. Oc1cccc(-c2nc(N3CCOCC3)c3cnn(CC(F)(F)F)c3n2)c1; 6.13
16. O=C(Nc1ccc(-c2nc(N3CCOCC3)c3cnn(C4CCN(C(=O)c5cccnc5)CC4)c3n2)cc1)Nc1ccsc1; 7.00
17. O=C(NCCF)Nc1ccc(-c2nc(N3CCOCC3)c3cnn(C4CCN(Cc5cccnc5)CC4)c3n2)cc1; 7.57
18. COC(=O)N1CCC(n2ncc3c(N4CCOCC4)nc(-c4ccc(NC(=O)OCCF)cc4)nc32)CC1; 5.39
19. CNC(=O)Nc1ccc(-c2nc(N3CCOCC3)c3cnn(C4CCN(C(=O)COC)CC4)c3n2)cc1; 5.85
20. Nc1ccc(-c2nc(N3CCOCC3)c3cnn(C4CCN(Cc5ccccc5)CC4)c3n2)cc1F [Compound 594]; 5.40
21. NS(=O)(=O)c1cccc(-c2nc(N3CCOCC3)c3cnn(C4CCN(Cc5ccccc5)CC4)c3n2)c1; 5.15
22. CC(=O)Nc1ccc(-c2nc(N3CCOCC3)c3cnn(Cc4ccccc4)c3n2)cc1; 5.24
23. C#CCNC(=O)Nc1ccc(-c2nc(N3CCOCC3)c3cnn(C4CCN(Cc5ccccc5)CC4)c3n2)cc1 [Compound 557]; 5.41
24. CNC(=O)Nc1ccc(-c2nc(N3CCOCC3)c3cnn(C4CCN(CC(N)=O)CC4)c3n2)cc1 [Example 332]; 6.00
25. COC(=O)Nc1ccc(-c2nc(N3CCOCC3)c3cnn(C4CCN(Cc5ccccc5)CC4)c3n2)cc1; 5.52
26. NCCC(=O)Nc1ccc(-c2nc(N3CCOCC3)c3cnn(-c4ccccc4)c3n2)cc1; 5.89
27. N#CN=C(N)Nc1ccc(-c2nc(N3CCOCC3)c3cnn(C4CCN(C(=O)c5cccnc5)CC4)c3n2)cc1; 4.92
28. Nc1ccc(-c2nc(N3CCOCC3)c3cnn(-c4ccccc4)c3n2)cn1; 5.89
29. CNC(=O)Nc1ccc(-c2nc(N3CCOCC3)c3cnn(C4CCN(Cc5cccc(OC)c5)CC4)c3n2)cc1; 6.30
